target: human EGFR on cells (A431, NCI-H292, NCI-H322, NCI-H441) (human, UniProt P00533 25-1210); test: cell-based or functional assay
MEASURED QUANTITY: NCI-H322 Growth IC50 (nM)
Could you give me the number in nM? Just the number is fine.

Some binders with recorded NCI-H322 Growth IC50:
Q. What does the data say about its NCI-H322 Growth IC50? Entry: P54AR4-83 (designed binder, not shown: small tags and cut ends) LPAPKNLVVSEVTEDSLRLSWDDPWAFYESFLIQYQESEKVGEAINLTVPGSERSYDLTGLKPGTEYTVSIYGVHNVYKDTNMRGLPLSAEFTT
A. 9.2

Q. Also need P54AR4-73 (designed binder, not shown: small tags and cut ends, also called P54AR4-37) LPAPKNLVVSEVTEDSLRLSWTWPYADLDSFLIQYQESEKVGEAINLTVPGSERSYDLTGLKPGTEYTVSIYGVHNVYKDTNMRGLPLSAEFTT , thanks.
A. 73

Here is another binder to look at.
Q. Bench note: what NCI-H322 Growth IC50 did P53A1R5-17 (designed binder, not shown: small tags and cut ends) LPAPKNLVVSEVTEDSLRLSWADPHGFYDSFLIQYQESEKVGEAINLTVPGSERSYDLTGLKPGTEYTVSIYGVHNVYKDTNMRGLPLSAEFTT show?
A. 65
